Provide the recorded PKCζ(h) % activity for the entries that follow.
target.of.assay: PKCζ(h) (Homo sapiens)
Construct: purchased Millipore (IC50 Profiler Express service)
Sequence (Q05513 1-592): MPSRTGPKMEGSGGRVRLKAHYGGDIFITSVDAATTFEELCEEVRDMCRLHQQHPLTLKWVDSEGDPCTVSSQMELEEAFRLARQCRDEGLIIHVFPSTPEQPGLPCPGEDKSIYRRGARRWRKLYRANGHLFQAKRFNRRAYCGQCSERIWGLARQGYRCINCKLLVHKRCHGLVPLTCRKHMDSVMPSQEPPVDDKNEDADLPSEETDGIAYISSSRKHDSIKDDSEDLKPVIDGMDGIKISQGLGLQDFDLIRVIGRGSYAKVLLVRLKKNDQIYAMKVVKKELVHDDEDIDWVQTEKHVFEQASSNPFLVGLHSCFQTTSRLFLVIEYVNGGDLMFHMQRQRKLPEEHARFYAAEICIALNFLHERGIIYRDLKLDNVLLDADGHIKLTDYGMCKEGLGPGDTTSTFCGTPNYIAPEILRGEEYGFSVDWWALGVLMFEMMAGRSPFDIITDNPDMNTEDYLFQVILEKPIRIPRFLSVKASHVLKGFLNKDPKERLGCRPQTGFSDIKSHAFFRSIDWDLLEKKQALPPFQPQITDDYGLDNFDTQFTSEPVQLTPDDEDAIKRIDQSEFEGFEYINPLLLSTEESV
assay.remarks: Kinase Profiling Assay
Assay type: biochemical
condition.context: 100 μM peptide

Illustrative cases are given below, each with its answer.
| query.sequence | readout.value |
| --- | --- |
| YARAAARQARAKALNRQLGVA (Mammalian) [MMI-0200] | 98% |
| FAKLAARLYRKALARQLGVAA [MMI-0300] | 81% |

For each listed entry, give its PKCζ(h) % activity.
1. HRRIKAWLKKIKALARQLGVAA (Mammalian) [MMI-0500]
2. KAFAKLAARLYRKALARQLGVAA [MMI-0400]

7%
75%
